Field: cell viability. Provide a value for each of the molecules that follow.
System: WHIM2 (cells of a triple-negative basal-like breast cancer xenograft)
Protocol Text: cell viability (% of vehicle); higher = less cytotoxic;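 also: PDX cells carrying CMV promoter-driven luciferase, viability read as total photon flux per second by IVIS imaging following D-luciferin, vehicle control 0.1% DMSO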
Run Parameters: 10 µM; 72 h

# Molecule, cell viability
records = [
    ("O=S(=O)([O-])CCS.[Na+] [Mesna]", 100),
    ("C#C[C@]1(O)CC[C@H]2[C@@H]3CCC4=CCCC[C@@H]4[C@H]3C(=C)C[C@@]21CC [Desogestrel]", 64.2),
    ("CCc1ccc(CCOc2ccc(CC3SC(=O)NC3=O)cc2)nc1.Cl (stereo not drawn) [Pioglitazone HCl]", 116),
    ("CC1(C)OC2COC3(COS(N)(=O)=O)OC(C)(C)OC3C2O1 (stereo not drawn) [Topiramate]", 105),
    ("C=C1c2cccc(O)c2C(O)=C2C(=O)C3(O)C(O)=C(C(N)=O)C(=O)C(N(C)C)C3C(O)C12.Cl (stereo not drawn) [Methacycline HCl]", 94.3),
    ("CN1CCN(c2c(F)cc3c(=O)c(C(=O)O)cn4c3c2OCN4C)CC1 [Marbofloxacin]", 75.5),
]

Record cell viability for all entries; do not skip any.
1. CCOC(=O)CC(=O)N1CCSC1COc1ccccc1OC (stereo not drawn) [Moguisteine]
2. CN1CCCC1c1cccnc1.O=C(O)C(O)C(O)C(=O)O.O=C(O)C(O)C(O)C(=O)O (stereo not drawn) [Nicotine Difartrate]

88.7
99.6

###

Tested on: HCI03 (cells of an ER-positive luminal breast cancer xenograft)
Protocol Text: cell viability (% of vehicle); higher = less cytotoxic
Run Parameters: 10 µM; 72 h
Structures can show the parent of a compound that is named as a salt.
Measured Quantity: cell viability
Numbers only.

# annotated cases, reported cell viability shown
# Compound, Target Desc, Measured Quantity, Result
records = [
    ("C=CC(=O)Nc1cccc(Nc2nc(Nc3ccc(N4CCN(C(C)=O)CC4)cc3OC)ncc2C(F)(F)F)c1", "HCI03", "cell viability", 99.9),
    ("Cl.c1ccc(CN(CC2=NCCN2)c2ccccc2)cc1 [Antazoline HCl]", "HCI03", "cell viability", 123),
    ("OC(CCCN1CCCCC1)(c1ccccc1)c1ccccc1 [Diphenidol HCl]", "HCI03", "cell viability", 139),
    ("CCN1CCN(C(=O)NC(C(=O)NC2C(=O)N3C2SC(C)(C)C3C(=O)[O-])c2ccccc2)C(=O)C1=O.[Na+] (stereo not given) [Piperacillin Sodium]", "HCI03", "cell viability", 91.8),
    ("CC(C(=O)O)c1ccc2c(c1)CC(=O)c1ccccc1S2 (stereo not given) [Zaltoprofen]", "HCI03", "cell viability", 120),
    ("COC(c1ccccc1)(c1ccccc1)C(Oc1nc(C)cc(C)n1)C(=O)O (stereo not given) [Ambrisentan]", "HCI03", "cell viability", 128),
    ("NS(=O)(=O)Cc1noc2ccccc12 [Zonisamide]", "HCI03", "cell viability", 136),
    ("Nc1ccn(C2OC(CO)C(O)C2O)c(=O)n1 (stereo not given) [Cytarabine]", "HCI03", "cell viability", 101),
]

Record cell viability for all entries; do not skip any.
1. OCC(CO)NC1CC(O)(CO)C(O)C(O)C1O (stereo not given) [Voglibose]
2. C#CC1(O)CCC2C3CCc4cc(OC)ccc4C3CCC21C (stereo not given) [Mestranol]

1: 109; 2: 136
